Tested on: EMT-6 mammary tumors
Test: Biodistribution in EMT-6 BALB/C mice
Assay type: in vivo
Conditions: tumor, 30 min
Task for the reader: assign each of the following compounds its reported % ID per gram tumor.
For clarity, give the value followed by its unit.

IN: Return reported % ID per gram tumor; argument: COc1cc2c(cc1OC)CN(CCNC(=O)c1cc(C)ccc1O[11CH3])CC2 [[^11C]9]
OUT: 1.08 ± 0.08 % ID per gram

IN: Return reported % ID per gram tumor; argument: COc1cc2c(cc1OC)CN(CCCCNC(=O)c1cc(C)cc(OC)c1O[11CH3])CC2 [[^11C]10]
OUT: 2.35 ± 0.27 % ID per gram

IN: Return reported % ID per gram tumor; argument: COc1cc2c(cc1OC)CN(CCCCNC(=O)c1cc([125I])cc(OC)c1OC)CC2 [[^125I]6i]
OUT: 4.50 ± 0.43 % ID per gram

IN: Return reported % ID per gram tumor; argument: COc1cc2c(cc1OC)CN(CCNC(=O)c1cc([125I])ccc1OC)CC2 [[^125I]8i]
OUT: 1.33 ± 0.13 % ID per gram

IN: Return reported % ID per gram tumor; argument: COc1cc2c(cc1OC)CN(CCCCNC(=O)c1cc(Br)cc(OC)c1O[11CH3])CC2 [[^11C]6]
OUT: 0.92 ± 0.10 % ID per gram

IN: Return reported % ID per gram tumor; argument: COc1cc2c(cc1OC)CN(CCCCNC(=O)c1cc([76Br])cc(OC)c1OC)CC2 [[^76Br]6]
OUT: 5.31 ± 0.62 % ID per gram
